- testedOn: T1, CPS-6 H148A/P207E (Caenorhabditis elegans, UniProt Q95NM6 63-305, H148A;P207E)
- T1 sequence: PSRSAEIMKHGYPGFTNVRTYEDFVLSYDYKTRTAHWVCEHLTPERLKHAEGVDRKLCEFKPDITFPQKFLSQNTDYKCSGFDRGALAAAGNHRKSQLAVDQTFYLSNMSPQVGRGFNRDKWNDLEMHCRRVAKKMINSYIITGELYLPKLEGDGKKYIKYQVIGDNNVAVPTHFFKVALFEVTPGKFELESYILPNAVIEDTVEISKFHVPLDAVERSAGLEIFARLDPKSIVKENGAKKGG
- experiment: filter binding
measuredEndpoint: Kd (nM)
Give a bare numeral; the unit nM is implied.

Measured Kd, ACGCTGCCGAATTCTGGCGTTAGGAGATACCGATAAGCTTCGGCTTAA (ssDNA) [48-nt ssDNA] : 804
